Where do these numbers come from? They come from ChEMBL document CHEMBL5303573.

- protocol_description: The drug is tested on Bacteroides caccae strain: ATCC43185 for biotransformation. The drug concentrations were measured before and after a 12-h incubation by liquid-chromatography-coupled mass spectrometry (LC–MS)
- condition_notes: 2 µM
measure_name: Bacterial Biotransformation

molecule="CN(C/C=C/C#CC(C)(C)C)Cc1cccc2ccccc12 [TERBINAFINE]" result="Compound NOT metabolized"
molecule="COc1cc2nc(N3CCN(C(=O)C4COc5ccccc5O4)CC3)nc(N)c2cc1OC.CS(=O)(=O)O (stereo not drawn) [DOXAZOSIN MESYLATE]" result="Compound NOT metabolized"
molecule="N#Cc1ccc(C(c2ccc(C#N)cc2)n2cncn2)cc1 [LETROZOLE]" result="Compound NOT metabolized"
molecule="Br.COc1ccc2c(c1)[C@]13CCCC[C@@H]1[C@H](C2)N(C)CC3.O [DEXTROMETHORPHAN HYDROBROMIDE]" result="Compound NOT metabolized"
molecule="OCCOCCN1CCN(C2=Nc3ccccc3Sc3ccccc32)CC1 [QUETIAPINE]" result="Compound NOT metabolized"
molecule="O=C1C(CC[S+]([O-])c2ccccc2)C(=O)N(c2ccccc2)N1c1ccccc1 (stereo not drawn) [SULFINPYRAZONE]" result="Compound NOT metabolized"

Exercise: Would you kindly share the measured Bacterial Biotransformation for CC(=O)CC(c1ccccc1)c1c(O)c2ccccc2oc1=O (stereo not drawn) [WARFARIN] ?
Key: Compound NOT metabolized

Exercise: Would you kindly share the measured Bacterial Biotransformation for O=C(O)COCCN1CCN(C(c2ccccc2)c2ccc(Cl)cc2)CC1 (stereo not drawn) [CETIRIZINE] ?
Key: Compound NOT metabolized

----------
- protocol_description: The drug is tested on Bacteroides fragilis strain: ATCC43859 for biotransformation. The drug concentrations were measured before and after a 12-h incubation by liquid-chromatography-coupled mass spectrometry (LC–MS)
- condition_notes: 2 µM
Non-standard residues stand in square brackets, D forms with d. Residues, ends and D or L forms follow the SMILES beside them. pGlu = O=C1CC[C@@H](C(=O)O)N1; Thz = O=C(O)[C@@H]1CSCN1
measure_name: Bacterial Biotransformation

compound=C[C@H]1O[C@@H](O[C@H]2[C@@H](O)C[C@H](O[C@H]3[C@@H](O)C[C@H](O[C@H]4CC[C@@]5(C)[C@H](CC[C@@H]6[C@@H]5C[C@@H](O)[C@]5(C)[C@@H](C7=CC(=O)OC7)CC[C@]65O)C4)O[C@@H]3C)O[C@@H]2C)C[C@H](O)[C@@H]1O measure_name="Bacterial Biotransformation" result="Compound metabolized"
compound="CN(C)CCc1c[nH]c2ccc(Cn3cncn3)cc12.O=C(O)c1ccccc1 [RIZATRIPTAN BENZOATE]" measure_name="Bacterial Biotransformation" result="Compound NOT metabolized"
compound="COc1cc(C(=O)NCc2ccc(OCCN(C)C)cc2)cc(OC)c1OC [TRIMETHOBENZAMIDE]" measure_name="Bacterial Biotransformation" result="Compound NOT metabolized"
compound=Cc1ccc(/C(=C\CN2CCCC2)c2ccccn2)cc1 measure_name="Bacterial Biotransformation" result="Compound NOT metabolized"

As a next step, examine the compound that follows.
Exercise: Would you kindly share the measured Bacterial Biotransformation for O=C1CC[C@@H](C(=O)N2CSC[C@H]2C(=O)O)N1 [PIDOTIMOD] ([pGlu]-[Thz]-OH) ?
Key: Compound metabolized
